Answer each item with its documented EC50 (FFC) rel. to HI.
Target Or Test System: insulin receptor on mouse adipocytes (mouse, UniProt P15208 28-1372)
Sequence (P15208 28-1372): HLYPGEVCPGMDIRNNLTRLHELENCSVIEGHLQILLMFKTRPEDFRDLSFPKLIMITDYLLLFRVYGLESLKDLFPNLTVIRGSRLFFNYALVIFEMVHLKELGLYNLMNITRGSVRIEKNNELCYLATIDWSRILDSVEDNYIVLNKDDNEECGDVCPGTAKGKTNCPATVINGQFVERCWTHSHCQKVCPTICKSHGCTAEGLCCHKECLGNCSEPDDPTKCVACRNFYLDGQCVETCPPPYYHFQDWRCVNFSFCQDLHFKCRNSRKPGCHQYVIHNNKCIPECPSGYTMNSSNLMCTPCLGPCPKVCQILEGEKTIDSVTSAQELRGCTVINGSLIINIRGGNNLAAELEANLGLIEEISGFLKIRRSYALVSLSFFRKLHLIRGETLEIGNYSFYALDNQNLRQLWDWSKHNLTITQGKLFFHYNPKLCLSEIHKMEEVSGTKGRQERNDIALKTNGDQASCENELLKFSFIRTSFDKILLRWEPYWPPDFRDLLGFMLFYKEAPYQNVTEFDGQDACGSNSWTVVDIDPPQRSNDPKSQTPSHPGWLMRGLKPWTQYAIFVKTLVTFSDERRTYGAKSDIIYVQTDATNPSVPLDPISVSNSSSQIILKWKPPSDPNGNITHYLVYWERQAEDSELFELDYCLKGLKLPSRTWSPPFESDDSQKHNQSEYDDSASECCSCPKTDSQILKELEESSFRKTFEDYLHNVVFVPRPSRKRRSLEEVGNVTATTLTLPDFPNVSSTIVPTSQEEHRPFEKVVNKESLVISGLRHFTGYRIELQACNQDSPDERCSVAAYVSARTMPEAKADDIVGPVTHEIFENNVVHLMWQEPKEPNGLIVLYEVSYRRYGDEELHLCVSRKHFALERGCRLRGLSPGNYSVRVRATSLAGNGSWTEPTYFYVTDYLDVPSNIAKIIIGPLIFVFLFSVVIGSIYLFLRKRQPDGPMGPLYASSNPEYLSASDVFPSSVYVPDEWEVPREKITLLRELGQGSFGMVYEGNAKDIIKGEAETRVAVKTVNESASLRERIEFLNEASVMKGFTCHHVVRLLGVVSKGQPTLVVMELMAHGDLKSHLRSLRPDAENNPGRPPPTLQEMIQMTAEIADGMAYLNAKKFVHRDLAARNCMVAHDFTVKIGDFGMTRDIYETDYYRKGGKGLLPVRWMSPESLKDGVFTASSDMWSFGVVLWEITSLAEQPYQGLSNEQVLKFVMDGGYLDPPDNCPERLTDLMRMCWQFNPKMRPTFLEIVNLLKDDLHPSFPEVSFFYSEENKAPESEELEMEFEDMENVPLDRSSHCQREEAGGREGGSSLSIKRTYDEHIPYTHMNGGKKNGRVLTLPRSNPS
Experiment Notes: cell-based or functional assay
Ends that are not written are not given here.
Field: numeric (%). Do not append units.

Any idea what EC50 (FFC) rel. to HI was measured for Ac-SLEEEWAQIQCEVWGRGCPSESFYDWFEAQLHA (cysteine pairing not given here) [634] ?
66

Any idea what EC50 (FFC) rel. to HI was measured for SLEEEWAQVECEVYQRGCPSESFYDWFERQL [684] ?
0.4

Any idea what EC50 (FFC) rel. to HI was measured for SLEEEWAQVECEVYHRGCPSESFYDWFERQL [695] ?
0.6

Any idea what EC50 (FFC) rel. to HI was measured for SLEEEWAQVECEVYGRNCPSESFYDWFERQL [683] ?
2.9

Any idea what EC50 (FFC) rel. to HI was measured for Ac-SLEEEWAQIQCEVWGRGCPSESFYGWFERQLG (cysteine pairing not given here) [S733] ?
61

Any idea what EC50 (FFC) rel. to HI was measured for Ac-SLEEEWAQIQAEVWGRGAPSESFYDWFERQL [672] ?
0.3

Any idea what EC50 (FFC) rel. to HI was measured for {MeO‑PEG5000}-SLEEEWAQIECEVYGRGCPSESFYDWFERQL (cysteine pairing not given here) [S660] ?
3.3

Any idea what EC50 (FFC) rel. to HI was measured for SLEEVWAQVECEVYGRGCPSESFYDWFERQL [690] ?
0.4

Any idea what EC50 (FFC) rel. to HI was measured for Ac-HGLEEEWAQIQCEVWGRGCPSESFYDWFEAQLHA (cysteine pairing not given here) [639] ?
5

Any idea what EC50 (FFC) rel. to HI was measured for SLEEYWAQVECEVYGRGCPSESFYDWFERQL [689] ?
0.4

Any idea what EC50 (FFC) rel. to HI was measured for Ac-SLEEEWAQIQCEVWGRGCPSESFYDWFERQL (cysteine pairing not given here) [S636] ?
98

Any idea what EC50 (FFC) rel. to HI was measured for Ac-HLEEEWSEIQCELWGRGCPSEDFYDWFEAQLHA (cysteine pairing not given here) [620] ?
1

Any idea what EC50 (FFC) rel. to HI was measured for Ac-SLEEEWAQIQCEVWGRGCPSESFYDWFERQLG (cysteine pairing not given here) [S671] ?
65

Any idea what EC50 (FFC) rel. to HI was measured for Ac-SLEEEWAQIQCEVWGRGCQRPEPFYDWFAEQLDD (cysteine pairing not given here) [655] ?
8.7

Any idea what EC50 (FFC) rel. to HI was measured for Ac-SLEEEWAQIQCELWGRGCPSESFYDWFERQL (cysteine pairing not given here) [643] ?
57

Any idea what EC50 (FFC) rel. to HI was measured for SLEEEWAQVECEVYGRHCPSESFYDWFERQL [692] ?
0.8

Any idea what EC50 (FFC) rel. to HI was measured for Ac-SLEEEWAQVECEVYGRGCPSESFYDWFERQL (cysteine pairing not given here) [699] ?
1.5

Any idea what EC50 (FFC) rel. to HI was measured for HLEEEWSEIQCELWGRGCPSEDFYDWFEAQLHA [617] ?
1

Any idea what EC50 (FFC) rel. to HI was measured for SLEEEWAQIEAEVWGRGAPPSESFYDWFERQLGY [649] ?
0.4

Any idea what EC50 (FFC) rel. to HI was measured for SLEEEWGQVECEVYGRGCPSESFYDWFERQL [681] ?
0.4

Any idea what EC50 (FFC) rel. to HI was measured for Ac-SLEEEWAQIECEVYGRGCPSEGFYNAIELLS (cysteine pairing not given here) [637] ?
0.1

Any idea what EC50 (FFC) rel. to HI was measured for SLEEEWAQVECEVYGRVCPSESFYDWFERQL [693] ?
0.1

Any idea what EC50 (FFC) rel. to HI was measured for Ac-SLEEEWAQIQCEVWGRGCPSEAFYDWFHEQLDD (cysteine pairing not given here) [662] ?
3.3

Any idea what EC50 (FFC) rel. to HI was measured for SLEEHWHQVECEVYHRHCPSESFYDWFERQL [698] ?
0.03

Any idea what EC50 (FFC) rel. to HI was measured for Ac-SLEEEWAQIQCEVWGRGCPSESFYGWFQAQL (cysteine pairing not given here) [668] ?
2.8

Data provenance: patent US20100298213A1
